study.system: PLA2 (phospholipase A2) from rat platelets (Rattus norvegicus, UniProt P14423)
Construct: from tissue; host or cells: rat platelets
Sequence (P14423 22-146): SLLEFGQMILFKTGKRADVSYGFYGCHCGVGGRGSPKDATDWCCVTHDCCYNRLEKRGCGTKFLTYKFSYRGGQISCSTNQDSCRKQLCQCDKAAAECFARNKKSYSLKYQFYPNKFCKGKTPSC
procedure.text: Phospholipase A2 inhibitory activity (release of free fatty acid from 14C-labelled phosphatidylethanolamine)
Format: biochemical
recorded.conditions: rat platelet PLA2; Tris-buffer 0.1M, pH 7.4; CaCl2 3 mM; 37° C., 20 minutes
As shown below, each of these compounds has a reported IC50 value.
outcome.measure: IC50 (µM)

[[record]]
chemical_smiles = "COc1c(C)c(OC(=O)c2c(C)c(C)c(OC(=O)c3c(C)c(CN[C@H](C)c4ccccc4)c(O)c(C)c3O)c(C)c2OC)c(C)c(C)c1C(=O)O"
readout_unit = "µM"
value_reported = 0.3

[[record]]
chemical_smiles = "COCc1c(C)c(C(=O)Oc2c(C)c(C)c(C(=O)Oc3c(C)c(C)c(C(=O)O)c(OC)c3C)c(OC)c2C)c(O)c(C)c1O"
readout_unit = "µM"
value_reported = 0.34

[[record]]
chemical_smiles = "COc1c(C)c(OC(=O)c2c(C)c(C)c(OC(=O)c3c(C)c(CNCC(=O)OCc4ccccc4)c(O)c(C)c3O)c(C)c2OC)c(C)c(C)c1C(=O)O"
readout_unit = "µM"
value_reported = 0.026

[[record]]
chemical_smiles = "CCOC(=O)CNCc1c(C)c(C(=O)Oc2c(C)c(C)c(C(=O)Oc3c(C)c(C)c(C(=O)O)c(OC)c3C)c(OC)c2C)c(O)c(C)c1O"
readout_unit = "µM"
value_reported = 0.17

[[record]]
chemical_smiles = "CCCCOCc1c(C)c(C(=O)Oc2c(C)c(C)c(C(=O)Oc3c(C)c(C)c(C(=O)O)c(OC)c3C)c(OC)c2C)c(O)c(C)c1O"
readout_unit = "µM"
value_reported = 0.12

[[record]]
chemical_smiles = "COc1ccc(CCOCc2c(C)c(C(=O)Oc3c(C)c(C)c(C(=O)Oc4c(C)c(C)c(C(=O)O)c(OC)c4C)c(OC)c3C)c(O)c(C)c2O)cc1"
readout_unit = "µM"
value_reported = 0.16


Where do the numbers come from? From patent US5473096A.
